Recorded melting point by entry
metric_name: melting point

> print(dat)
                                   compound    metric.name     data.value
1           Fc1ccc(-c2nccc3c(CCl)cccc23)cc1  melting point  110 to 112 °C
2                  CNC(=S)Nc1ccccc1N1CCOCC1  melting point  115 to 116 °C
3  CCC12CCC3C4CCC(=O)C=C4CCC3C1=CC=C2c1ccccc1 (stereo unspecified)  melting point         191 °C
4   OCC1Cc2ccccc2OC1CO (stereo unspecified)  melting point    82 to 85 °C
5           C#CCCCN=C(NC#N)NCCSCc1[nH]cnc1C  melting point   99 to 103 °C
6  CC(C(=O)O)c1ccc2c(c1)C(=O)Cc1c(Cl)cccc1S2 (stereo unspecified)  melting point  163 to 164 °C

====

metric_name: melting point

> print(dat)
                                    molecule       data.value
 1  COc1ccc([C@@H]2Sc3cc(Cc4ccc(F)cc4)ccc3NC(=O)[C@@H]2O)cc1    216 to 218 °C
 2  COc1ccc(C(=O)Nc2ccc(C(C)(C)CNC(=O)c3cnc4[nH]ccc4c3)cc2)cc1OC    256 to 258 °C
 3  CNC(=O)CC1CN=C(c2cc3cc(Oc4ccc(S(C)(=O)=O)nc4)cc(OC)c3[nH]2)S1 (stereo unspecified)    201 to 202 °C
 4      Fc1cccc(CSc2nnc(-c3ccn4ncnc4c3)o2)c1    153 to 154 °C
 5           CCCCCc1ccc(C=Nc2ccc(C#N)cc2)cc1  45.6 to 46.4 °C
 6  CC(=O)C1CCC2C3CCC4CC(O)C(C)CC4(C)C3C(=O)CC12C (stereo unspecified)    142 to 146 °C
 7  COc1ccc(N2CCN(c3c(C)c(C)c4c(c3C)CC(C)(C)O4)CC2)c(OC)c1    154 to 156 °C
 8    Cc1cc2cc(F)ccc2n1-c1ccc(OCc2ccccc2)cc1      94 to 95 °C
 9  COc1ccc(CC(=Nc2ccccc2)NC(=S)NCc2cccnc2)cc1    175 to 176 °C
10         CCOC(=S)c1ccc(C)c(-c2cc(C)no2)c1C      72 to 74 °C
11                COCOc1cc(OCOC)cc(C(=O)O)c1    129 to 130 °C
12                       O=C(O)c1cccc2ccoc12    159 to 161 °C
13  CN(C)Nc1c([N+](=O)[O-])cc(C(F)(F)F)c(Cl)c1[N+](=O)[O-]    130 to 131 °C
14  CC(C)C(=O)CCSc1cc(C(C)(C)C)c(O)c(C(C)(C)C)c1      50 to 53 °C
15  CC(=O)NNc1ccc(N2C(=S)SCC2(O)c2ccccc2)cc1 (stereo unspecified)      80 to 84 °C
16  COCCC(=O)N[C@H]1CC[C@H](CCN2CCN(c3ncc(C)c4c3CCO4)CC2)CC1           164 °C
17  COc1ccc(C2=NN(C3CCN(S(C)(=O)=O)CC3)C(=O)CC2)cc1OC    164 to 166 °C
18  CC1(c2cc(NC(=O)Nc3ccc(OCCN4CCOCC4)c4ccccc34)n(-c3ccccc3)n2)CCCCC1    147 to 149 °C
19  Cc1cccc(N2CCOC2=O)c1COc1cccn2c(CO)c(C)nc12    190 to 193 °C
20  CC(=O)Nc1ccc(C(=O)OCC=CC(C)Oc2ccc(Oc3cnc4cc(Cl)ccc4n3)cc2)cc1 (stereo unspecified)      62 to 68 °C
21                   CCCCCCCCCCCCc1cc(CO)on1      61 to 63 °C
22  CNc1nc(-c2ccc(F)cc2)n(-c2ccc(SC)cc2)c(=O)c1C#N    219 to 222 °C
23  CC(C)(n1cncn1)C(O)(Cn1cncn1)c1ccc(F)cc1 (stereo unspecified)    156 to 158 °C
24   NCC(CC(=O)O)CC1CC1 (stereo unspecified)    172 to 173 °C
25               NN=C1c2ccccc2-c2ccc(Cl)cc21    139 to 143 °C
26  CC(C)(C)c1ccc(OCC(=O)Nc2nnc(-c3cccc(Oc4cccc(C(F)(F)F)c4)c3)s2)cc1    179 to 180 °C
27  Cc1ccc(C)c(-c2cc(C#N)c(NC(=O)[C@@H]3C[C@@H]4CC[C@H]3C4)s2)c1    168 to 169 °C
28              Cn1cnc(=O)c(-c2cccc(Br)c2)c1    120 to 121 °C
29  CCn1c(=O)n(CCc2ccc(C)cc2)c(=O)n(C(C)(C)C)c1=O            64 °C
30  CCCn1nc2c(N)nc3ccccc3c2c1CCN1CCCS1(=O)=O    201 to 202 °C
31                    BrCCCCOc1ccc2c(c1)OCO2      52 to 54 °C
32  CCC(C)Nc1nc2ccccc2c(=O)o1 (stereo unspecified)    122 to 123 °C
33            CC(C)(C)OC(=O)c1ccc(C(=O)O)cc1    100 to 102 °C
34  CN1CCN(CNC(=O)c2cccc(Nc3nccc(-c4cccnc4)n3)c2)CC1    220 to 224 °C
35                 CC(=CC#N)c1cccc2cc[nH]c12      88 to 90 °C
36  O=C(Nc1cc(C(F)(F)F)cc(C(F)(F)F)c1)C1C(=O)C2CCC(C2)C1=O (stereo unspecified)      88 to 90 °C
37  O=C(O)CCCCCCCc1ccc(CCNC(=O)c2ccc(Cl)cc2)cc1    145 to 148 °C
38           CCOC(=O)C(C)=Cc1cc(F)c(F)c(F)c1            54 °C
39  CCOC(=O)NC(C(=O)NN(Cc1ccc(-c2cncs2)cc1)CC(O)C(Cc1ccccc1)NC(=O)C(NC(=O)OC)C(C)CC)C(C)C (stereo unspecified)    200 to 203 °C
40  CCOC(=O)[C@@H]1Cc2ccccc2N1C(=O)CC[C@@H](NC(=O)OCc1ccccc1)C(=O)OCc1ccccc1    114 to 116 °C
41              OCc1cccc(OCc2ccc3ccccc3n2)c1            70 °C
